- tested-system: T1, PPR10 (UniProt B8Y6I0 96-786)
- T1 sequence: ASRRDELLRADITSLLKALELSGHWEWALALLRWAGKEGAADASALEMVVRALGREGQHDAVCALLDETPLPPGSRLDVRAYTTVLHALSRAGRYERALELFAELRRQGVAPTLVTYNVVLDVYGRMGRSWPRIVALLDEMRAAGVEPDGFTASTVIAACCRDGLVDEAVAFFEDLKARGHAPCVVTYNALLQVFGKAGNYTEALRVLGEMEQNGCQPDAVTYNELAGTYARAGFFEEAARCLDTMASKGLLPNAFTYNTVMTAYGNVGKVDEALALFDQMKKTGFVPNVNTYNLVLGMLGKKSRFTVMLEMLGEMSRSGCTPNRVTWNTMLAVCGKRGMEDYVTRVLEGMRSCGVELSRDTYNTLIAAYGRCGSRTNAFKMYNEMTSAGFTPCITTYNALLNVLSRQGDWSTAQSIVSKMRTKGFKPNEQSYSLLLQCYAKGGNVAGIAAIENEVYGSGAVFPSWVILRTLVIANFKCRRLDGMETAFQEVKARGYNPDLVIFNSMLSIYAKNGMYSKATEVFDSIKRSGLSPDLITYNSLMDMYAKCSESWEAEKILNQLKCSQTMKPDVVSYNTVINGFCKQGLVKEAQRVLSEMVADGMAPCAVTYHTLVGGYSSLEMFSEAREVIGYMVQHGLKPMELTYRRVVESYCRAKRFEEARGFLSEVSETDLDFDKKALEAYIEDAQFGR
- assay-remarks: EMSA; 0.5 mg/mL heparin, 140 mM NaCl; EMSA: 40 mM Tris-HCl pH 7.5, 140 mM NaCl, 10% glycerol, 4 mM DTT, 0.1 mg/mL BSA, 0.5 mg/mL heparin, RNAsin, 5 pM RNA, 25 C, 30 min; SPR: 100 mM HEPES pH 7.5, 150 mM NaCl, 3 mM EDTA, 1 mM 2-mercaptoethanol, 0.005% P20
- condition-description: protein: recombinant; tags: MBP fusion, MBP cleaved off; label: 5' 32P; unstructured
pKd: −log10 of the molar value.
measured-quantity: pKd

What value of measured pKd is listed for AUUGUAUCCUUAACCAUUUCUUU (ssRNA) [atpH-23mer] ?
~10.30

Data credit: paper PMC6303017
